system: LOX IMVI; assay: NCI tumour cell line growth inhibition, 48 h
Calls of active or inactive are those of the source. Cut-off read from the data, not from the text of the source: active = GI50 up to about 1.1 µM and inactive = higher.
Returns: one label drawn from Yes = active, No = inactive

Completed entries (count: 3):
Molecule: CC1C(=O)C(C)C(c2ccccc2)N(N=O)C1c1ccccc1 (centres undefined)
Classification: No
//
Molecule: Cc1c(/N=N/c2ccc(Cl)cc2)c(-c2ccccc2)n(C2OC(CO)C(O)C(O)C2O)c(=S)c1C#N (centres undefined)
Classification: No
//
Molecule: CC1OC(OC2C(CO)OC(O[C@H]3CC[C@@]4(C)C(=CC[C@H]5[C@@H]6C[C@@H]7O[C@](O)(CC[C@H](CO)COC8OC(CO)C(O)C(O)C8O)[C@@H](C)[C@@H]7[C@@]6(C)CC[C@@H]54)C3)C(OC3OC(C)C(O)C(O)C3O)C2O)C(O)C(O)C1O (some centres undefined)
Classification: No

query: Which outcome was assigned to "Cc1cc(=O)oc2cc(O)c(CN(C)CC(=O)O)cc12" in this test?
result: No

query: Which outcome was assigned to "COc1ccc2c3c1O[C@H](c1ccc(O)cc1)[C@H]3[N+](C)(C)CC2" in this test?
result: No

query: Which outcome was assigned to CC(C)(C)NCC(COc1ccc([N+](=O)[O-])cc1)OP(c1ccccc1)c1ccccc1 (centres undefined) in this test?
result: No

query: Which outcome was assigned to CC1=CCC[C@@]2(C)C(CC[C@@H]2C(C)/C=C/C(C)C)c2ccc(cc2C(=O)O)C[C@@H](O)CC1 (some centres undefined) in this test?
result: No

query: Which outcome was assigned to "O=C(O)c1nc2ccccc2nc1Nc1ccc(Cl)c(Cl)c1" in this test?
result: No

query: Which outcome was assigned to "CCc1n[nH]c(=O)[nH]1" in this test?
result: No

###

system: CCRF-CEM; assay: NCI tumour cell line growth inhibition, 48 h
Active and inactive are the calls of the source. Cut-off read from the data, not from the text of the source: active = GI50 up to about 1.1 µM and inactive = higher.
Observation Type: GI50

Use the examples below as a reference point.
Molecule: O=c1c2ccccc2oc2nc3n(c(=O)c12)CCCS3
GI50: > 100 µM (inactive)
--
Molecule: CCOC(=O)c1ccc(NC(NC(=O)CC)(C(F)(F)F)C(F)(F)F)cc1
GI50: > 100 µM (inactive)
--
Molecule: CC1(C)OC(=O)C(=C2CC(c3ccccc3)c3ccccc32)C(=O)O1 (stereo not given)
GI50: > 100 µM (inactive)
--
Molecule: COc1ccc2nc3cc(Cl)ccc3c(NCCCN3CCN(CCCNc4ccc5nnn6c7ccccc7c(=O)c4c56)CC3)c2c1
GI50: 0.17 µM (active)

Consider the record given below.
So, COC(=O)C1C2OC(C)(C)OC2CN1S(=O)(=O)c1ccc(C)cc1 (stereo not given) ? Its GI50 was > 100 µM (inactive)

###

test system: SF-295; test: NCI tumour cell line growth inhibition, 48 h
Active and inactive are the calls of the source. Rule as the data show it: active = GI50 up to about 1.1 µM and inactive = higher.
Returns: one label drawn from Y = active, N = inactive

Completed entries (count: 4):
Molecule: COc1cc(C(C)c2cc3c(cc2OCCNC(=O)COc2cc4c(cc2C(C)c2cc(OC)c(OC)c(OC)c2)OCO4)OCO3)cc(OC)c1OC (stereo not given)
Classification: N
--
Molecule: CCOC(=O)NC(=O)c1cn(CCN2CCN(C(=O)CCCCCCCCCCNc3ncnc4[nH]cnc34)CC2)c(=O)[nH]c1=O
Classification: N
--
Molecule: COc1ccc(C2Cc3cc(OC)c(OC)c(OC)c3C2)cc1 (stereo not given)
Classification: N
--
Molecule: COc1ccc2c(c1)C1=NCCN(CCO)c3ccc([N+](=O)[O-])c(c31)N2
Classification: Y

Let's switch to this molecule now.
query: Which outcome was assigned to "O=C(Nc1ccccc1)c1ccc(Cl)c([N+](=O)[O-])c1" in this test?
result: N

###

tested on: NCI-H23; experiment: NCI tumour cell line growth inhibition, 48 h
Active and inactive are the calls of the source. No stated cut-off is given here; in the data, active = GI50 up to about 1.1 µM and inactive = higher.
Listed molecules paired with reported GI50

Use the examples below as a reference point.
Molecule: Cc1ccc(C)c(NC(=O)C(=O)CC(=O)c2cccc3ccccc23)c1
GI50: > 100 µM (inactive)

Molecule: CN/C(=N\c1ccc(OC)c2ccccc12)SC
GI50: > 10 µM (inactive)

Molecule: C=C(C)C(=O)O[C@H]1CC2(CO)O[C@@H]2CC/C(COC(C)=O)=C/C2OC(=O)C(=C)[C@@H]21 (stereo partly specified)
GI50: 42.2 µM (inactive)

Molecule: O=c1c2ccccc2[nH]c2cc(O)cc(O)c12
GI50: 22.9 µM (inactive)

Molecule: O=[N+]([O-])c1nccn1CC(O)c1ccccc1 (stereo unspecified)
GI50: > 100 µM (inactive)

So, "Cc1cc(=O)oc2cc(O)c(CN(C)CC(=O)O)cc12" ? Its GI50 was > 100 µM (inactive)

So, "C[C@H](N)C(=O)N[C@@H]1[C@H]2C(=C(O)C[C@@H](O)[C@@H]2O)C(=O)O[C@]1(C)C(Cl)Cl" ? Its GI50 was 0.183 µM (active)

So, Cc1cn(C2CC(N(C)C)C(CO)O2)c(=O)[nH]c1=O (stereo unspecified) ? Its GI50 was > 100 µM (inactive)

So, COC(=O)C1=C(C(=O)OC)C2C=CC1C1C(Cl)=C(Cl)C21 (stereo unspecified) ? Its GI50 was > 100 µM (inactive)

So, "O=C(O)c1nc(-c2ccccc2)ncc1-c1nnnn1-c1ccccc1" ? Its GI50 was > 100 µM (inactive)

So, "CCc1n[nH]c(=O)[nH]1" ? Its GI50 was > 100 µM (inactive)

So, C[C@]12CCC3[C@@H](CC[C@@H]4c5nonc5CC[C@]34C)C1CCC(=O)N2 (stereo partly specified) ? Its GI50 was > 100 µM (inactive)

So, "O=C(O)CC/C(=N\Nc1nsc2ccccc12)c1ccc(Cl)cc1" ? Its GI50 was 21.2 µM (inactive)

So, C=C(C)C1CC2=C(O1)C(=O)c1ccccc1C2=O (stereo not drawn) [DEHYDROISO-ALPHA-LAPACHONE] ? Its GI50 was 18.9 µM (inactive)

So, "COc1ccccc1N1CCN(CCCCNC(=O)c2ccc([N+](=O)[O-])o2)CC1" ? Its GI50 was 5.79 µM (inactive)

So, "C#CCOC(=O)c1ccc(OC(C)=O)cc1" ? Its GI50 was > 100 µM (inactive)

###

system: SNB-78; experiment: NCI tumour cell line growth inhibition, 48 h
Calls of active or inactive are those of the source. Rule as the data show it: active = GI50 up to about 1.1 µM and inactive = higher.
Returns: one label drawn from active, inactive

Completed entries (count: 3):
Compound: Cc1ccc(S(=O)(=O)N/N=C(\C(=O)Nc2cccc([N+](=O)[O-])c2)c2nc3ccc([N+](=O)[O-])cc3nc2O)cc1
Classification: inactive
--
Compound: CC1OC(n2ccc3ccc([N+](=O)[O-])cc32)C(O)C(O)C1O (centres undefined)
Classification: inactive
--
Compound: COc1c(C=O)c2c(c(OC)c1OC)-c1ccc(OC)c(=O)cc1[C@@H](NC(C)=O)CC2
Classification: active

Let's switch to this compound now.
query: Which outcome was assigned to CC(NC(=O)C(=O)N/N=C1\C[C@@H](c2ccccc2)Nc2ccccc21)c1ccccc1 (some centres undefined) in this test?
result: inactive

###

tested on: RPMI-8226; test: NCI tumour cell line growth inhibition, 48 h
Active and inactive are the calls of the source. Cut-off read from the data, not from the text of the source: active = GI50 up to about 1.1 µM and inactive = higher.
Listed compounds paired with reported GI50

Use the examples below as a reference point.
Compound: Cc1ccc(Cl)cc1/N=N/C(=O)NNc1cc(Cl)ccc1C
GI50: 19.9 µM (inactive)
//
Compound: O=C(/C=C/c1ccc(Cl)c(Cl)c1)Oc1ccc(/C=C2\CCCCC2=O)cc1
GI50: 67.6 µM (inactive)
//
Compound: C=C(C)C1CC2=C(O1)C(=O)c1ccccc1C2=O (stereo not drawn) [DEHYDROISO-ALPHA-LAPACHONE]
GI50: 15.1 µM (inactive)
//
Compound: O=c1n(CC2CO2)c2ccccc2n1CC1CS1 (configuration not stated)
GI50: 36.3 µM (inactive)
//
Compound: COC(=O)c1ccc(C)cc1CC1Cc2cc(C)ccc2C1=O (configuration not stated)
GI50: > 100 µM (inactive)
//
Compound: COc1c(C(=O)O)oc2c(OC)cccc12
GI50: > 100 µM (inactive)
//
Compound: CCC1OC2C(CC=C(C)C)=C3OC(C)(O)C(C)(CC)C(=O)C3=C3OC(=O)C=C1C32 (configuration not stated)
GI50: 19.2 µM (inactive)
//
Compound: CN1CCCCC1CCN1CCCCC1 (configuration not stated)
GI50: > 100 µM (inactive)

The reported RPMI-8226 GI50 of COc1ccc(C2CC(c3ccc4ccccc4c3O)=NN2C(C)=O)cc1OC (configuration not stated) is > 100 µM (inactive)

The reported RPMI-8226 GI50 of COC1(OC)c2ccccc2C2(O)c3ccccc3C(=O)C12 (configuration not stated) is 5.79 µM (inactive)

The reported RPMI-8226 GI50 of "O=S(=O)(N/N=C/c1cccc(/C=N/NS(=O)(=O)c2ccccc2)c1)c1ccccc1" is 70.8 µM (inactive)

The reported RPMI-8226 GI50 of COc1ccc(-c2cc(=O)c3c(OC)c(OC)c(OC)c(OC)c3o2)cc1 [TANGERETIN] is 67 µM (inactive)

The reported RPMI-8226 GI50 of "O=C(NC1CCCCC1)c1cc2ccccc2cc1O" is 17.7 µM (inactive)

The reported RPMI-8226 GI50 of "Nc1cc(N)c(/N=N/c2cccc3c(S(=O)(=O)O)cccc23)cc1/N=N/c1cc([N+](=O)[O-])ccc1O" is 35.6 µM (inactive)

The reported RPMI-8226 GI50 of "CC(=O)Nc1ccc2nc(N)n[n+]([O-])c2c1" is > 100 µM (inactive)

The reported RPMI-8226 GI50 of "O=C(Nc1ccccc1)c1ccc(Cl)c([N+](=O)[O-])c1" is 3.88 µM (inactive)

The reported RPMI-8226 GI50 of "O=C(Nc1ccccc1)Oc1ccc(C(=S)Nc2ccc(Br)cc2)cc1" is 36.6 µM (inactive)

The reported RPMI-8226 GI50 of CC(C)(C)OC(=O)NC(CCCCNC(=O)OCc1ccccc1)C(=O)NCCNc1ccc(NCCNC(=O)C(CCCCNC(=O)OCc2ccccc2)NC(=O)OC(C)(C)C)c2c1C(=O)c1ccccc1C2=O (configuration not stated) is 1.02 µM (active)

The reported RPMI-8226 GI50 of COC(=O)C12C(=O)CC3CCC1C32C(=O)OC (configuration not stated) is > 100 µM (inactive)

The reported RPMI-8226 GI50 of "CC(C)(C)OC(=O)NCC(=O)N1CCN(C(=O)CNC(=O)OC(C)(C)C)CC1" is > 100 µM (inactive)

The reported RPMI-8226 GI50 of "CCCN(CCc1ccc(-c2ccccc2)cc1)CCc1ccc2nn[nH]c2c1" is 4.52 µM (inactive)

The reported RPMI-8226 GI50 of N#CCCC1C(C#N)C2(Cl)CC1(Cl)C(Cl)=C2Cl (configuration not stated) is > 10 µM (inactive)
